compounds and their reported pIC50
target: Rat recombinant TRPM8 (Rattus norvegicus); construct: expressed in transfected cells; host or cells: HEK293 (TRPM8-HEK-293, gift from Mario van der Stelt); experiment: TRP channel [Ca2+]i assay; type: cell-based; settings: vs icilin 0.1μM (second value in cell); read-out: TRPM8 IC50 for antagonism of icilin
Sequence (Q8R455 whole entry): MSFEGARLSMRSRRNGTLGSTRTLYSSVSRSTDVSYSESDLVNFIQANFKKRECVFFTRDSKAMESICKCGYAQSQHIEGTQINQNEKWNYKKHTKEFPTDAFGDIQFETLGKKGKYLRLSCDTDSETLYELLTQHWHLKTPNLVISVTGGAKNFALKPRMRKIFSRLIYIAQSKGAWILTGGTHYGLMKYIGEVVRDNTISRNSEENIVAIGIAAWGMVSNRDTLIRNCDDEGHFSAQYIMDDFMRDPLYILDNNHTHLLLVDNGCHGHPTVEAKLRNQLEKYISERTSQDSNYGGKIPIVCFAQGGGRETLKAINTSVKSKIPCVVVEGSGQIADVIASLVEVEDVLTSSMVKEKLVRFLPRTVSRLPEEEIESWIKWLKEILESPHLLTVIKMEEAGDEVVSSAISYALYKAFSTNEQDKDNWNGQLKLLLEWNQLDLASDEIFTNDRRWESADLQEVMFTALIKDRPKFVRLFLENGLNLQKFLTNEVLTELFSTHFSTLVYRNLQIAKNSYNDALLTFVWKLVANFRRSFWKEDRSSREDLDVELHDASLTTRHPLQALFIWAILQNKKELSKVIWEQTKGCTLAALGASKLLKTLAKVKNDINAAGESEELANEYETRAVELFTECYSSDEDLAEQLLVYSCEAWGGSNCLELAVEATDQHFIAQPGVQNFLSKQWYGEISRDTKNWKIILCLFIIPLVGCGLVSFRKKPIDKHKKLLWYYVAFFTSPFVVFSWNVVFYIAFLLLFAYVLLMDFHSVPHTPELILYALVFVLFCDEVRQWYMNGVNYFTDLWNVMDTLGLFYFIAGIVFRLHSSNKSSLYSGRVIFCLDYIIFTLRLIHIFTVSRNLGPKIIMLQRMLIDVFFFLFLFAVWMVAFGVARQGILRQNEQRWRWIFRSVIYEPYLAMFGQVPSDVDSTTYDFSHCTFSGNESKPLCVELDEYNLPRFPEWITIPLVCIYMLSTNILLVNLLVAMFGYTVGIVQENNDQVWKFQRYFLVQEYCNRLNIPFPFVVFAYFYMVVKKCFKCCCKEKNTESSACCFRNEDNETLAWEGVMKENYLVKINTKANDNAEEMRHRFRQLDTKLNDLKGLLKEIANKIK
In simple prose, pIC50 is minus the logarithm base ten of a concentration in moles per litre.

{"Compound": "COc1ccc(C(=O)c2c(C)n(CCN3CCOCC3)c3cc(I)ccc23)cc1 [AM630]", "Measured On": "Rat recombinant TRPM8 (Rattus norvegicus)", "Recorded Endpoint": "pIC50", "Observed": 5.72}

Value (pIC50, Rat recombinant TRPM8 (Rattus norvegicus)) for record Cc1c(C(=O)c2cccc3ccccc23)c2cccc3c2n1[C@H](CN1CCOCC1)CO3 [WIN55212-2] = 4.72

Data origin: paper PMC5216056
